System: Leishmania donovani
Assay: Antileishmanial activity against promastigotes of Leishmania donovani MHOM/IN/80/DD8 after 72 hrs by MTT assay
Assay type: functional, organism-based
Conditions: MHOM/IN/80/DD8, 72 h
attribute measured: IC50 (µg/mL)
The reply should be a number in µg/mL, with the unit left off.

Use the examples below as a reference point.
# molecule, test system, unit abbrev, IC50
records = [
    ("COc1ccc(C(CC(=O)c2c(O)c3ccccc3oc2=O)c2c[nH]c3ccccc23)cc1OC (configuration not stated)", "Leishmania donovani", "µg/mL", 212),
    ("COc1ccc(OC)c(C(CC(=O)c2c(O)c3ccccc3oc2=O)c2c[nH]c3ccccc23)c1 (configuration not stated)", "Leishmania donovani", "µg/mL", 99),
    ("O=C(CC(c1ccccc1)c1c[nH]c2ccccc12)c1c(O)c2ccccc2oc1=O (configuration not stated)", "Leishmania donovani", "µg/mL", 95.5),
    ("COc1ccc(C(CC(=O)c2c(O)c3ccccc3oc2=O)c2c[nH]c3ccccc23)cc1 (configuration not stated)", "Leishmania donovani", "µg/mL", 174),
    ("O=C(CC(c1ccc(O)cc1)c1c[nH]c2ccccc12)c1c(O)c2ccccc2oc1=O (configuration not stated)", "Leishmania donovani", "µg/mL", 288),
]

Here's the next entry for you.
Look up IC50 for this molecule: O=C(CC(c1c(Cl)cccc1Cl)c1c[nH]c2ccccc12)c1c(O)c2ccccc2oc1=O (configuration not stated)
95

###

Experiment: Antioxidant activity of the compound assessed as DPPH radical scavenging after 30 mins by spectrophotometric analysis
Assay type: physicochemical
attribute measured: IC50 (µg/mL)
The reply should contain only the number, in µg/mL.

# compound, unit abbrev, IC50
records = [
    ("O=C(CC(c1ccc(F)cc1)c1c[nH]c2ccccc12)c1c(O)c2ccccc2oc1=O (stereo not given)", "µg/mL", 47.35),
    ("O=C(CC(c1ccc(Cl)cc1)c1c[nH]c2ccccc12)c1c(O)c2ccccc2oc1=O (stereo not given)", "µg/mL", 46.35),
    ("COc1ccc(OC)c(C(CC(=O)c2c(O)c3ccccc3oc2=O)c2c[nH]c3ccccc23)c1 (stereo not given)", "µg/mL", 19.02),
    ("N#Cc1ccc(C(CC(=O)c2c(O)c3ccccc3oc2=O)c2c[nH]c3ccccc23)cc1 (stereo not given)", "µg/mL", 13.74),
]

Let's switch to this compound now.
What does the record list as IC50 for O=C(CC(c1ccccc1Cl)c1c[nH]c2ccccc12)c1c(O)c2ccccc2oc1=O (stereo not given) ?
39.62

###

Assay: Antioxidant activity of the compound assessed as DPPH radical scavenging after 30 mins by spectrophotometric analysis
Format: physicochemical
attribute measured: IC50 (µg/mL)
Report only the number, with the unit µg/mL understood.

Worked cases, IC50 given:
# compound, unit abbrev, IC50
records = [
    ("COc1ccc(C(CC(=O)c2c(O)c3ccccc3oc2=O)c2c[nH]c3ccccc23)cc1OC (centres undefined)", "µg/mL", 63.16),
    ("O=C(CC(c1ccc(O)cc1)c1c[nH]c2ccccc12)c1c(O)c2ccccc2oc1=O (centres undefined)", "µg/mL", 58.91),
    ("O=C1O[C@H]([C@@H](O)CO)C(O)=C1O", "µg/mL", 12.8),
    ("O=C(CC(c1ccc(O)c(O)c1)c1c[nH]c2ccccc12)c1c(O)c2ccccc2oc1=O (centres undefined)", "µg/mL", 71.08),
    ("O=C(CC(c1ccccc1)c1c[nH]c2ccccc12)c1c(O)c2ccccc2oc1=O (centres undefined)", "µg/mL", 12.4),
    ("O=C(CC(c1c(Cl)cccc1Cl)c1c[nH]c2ccccc12)c1c(O)c2ccccc2oc1=O (centres undefined)", "µg/mL", 13.49),
    ("Cc1cc(C(C)(C)C)c(O)c(C(C)(C)C)c1 [BUTYLATED HYDROXYTOLUENE]", "µg/mL", 16.5),
    ("COc1ccc(C(CC(=O)c2c(O)c3ccccc3oc2=O)c2c[nH]c3ccccc23)cc1 (centres undefined)", "µg/mL", 16.21),
]

In the following, a different compound is considered.
Look up IC50 for this compound: COc1ccc(C(CC(=O)c2c(O)c3ccccc3oc2=O)c2c[nH]c3ccccc23)c(OC)c1 (centres undefined)
13.24

###

Test system: Leishmania donovani
Assay: Antileishmanial activity against promastigotes of Leishmania donovani MHOM/IN/80/DD8 after 72 hrs by MTT assay
Type: functional, organism-based
Conditions: MHOM/IN/80/DD8, 72 h
attribute measured: IC50 (µg/mL)
Give your result in µg/mL as a bare value.

# molecule, meas value
rows = [
    ("O=C(CC(c1ccc(Cl)cc1)c1c[nH]c2ccccc12)c1c(O)c2ccccc2oc1=O (stereo unspecified)", 125),
]

If you can, please state the reported IC50 value of N#Cc1ccc(C(CC(=O)c2c(O)c3ccccc3oc2=O)c2c[nH]c3ccccc23)cc1 (stereo unspecified) .
102

Same question for O=C(CC(c1ccc(O)c(O)c1)c1c[nH]c2ccccc12)c1c(O)c2ccccc2oc1=O (stereo unspecified) please.
231

Entry O=C(CC(c1ccc(F)cc1)c1c[nH]c2ccccc12)c1c(O)c2ccccc2oc1=O (stereo unspecified) please
156

Ok, now COc1ccc(C(CC(=O)c2c(O)c3ccccc3oc2=O)c2c[nH]c3ccccc23)c(OC)c1 (stereo unspecified)
250

Also O=C(CC(c1ccccc1Cl)c1c[nH]c2ccccc12)c1c(O)c2ccccc2oc1=O (stereo unspecified) , if possible.
102

Provenance of the data: ChEMBL document CHEMBL3751714
